Quick reference: emission maximum of the listed items.
# experimentalProtocol: solvent given as SMILES
# conditionParameters: in CO
Give a bare numeral; the unit nm is implied.

Examples with answers:
Q: GET /values?readout=emission maximum&item= `N#Cc1nc2cnc(N)nc2n1Cc1ccccc1`
A: 398

Q: GET /values?readout=emission maximum&item= `CCC1=C(C)C(=O)n2c1cc1c(C)c(CC(=O)O)c(C)n1c2=O`
A: 535

Q: GET /values?readout=emission maximum&item= `COc1ccc2c3c(cccc13)C(=O)c1ccccc1-2`
A: 560.85

More entries:
Q: GET /values?readout=emission maximum&item= `Cc1cc(C)n2c1C=C1c3ccccc3C(c3[nH]c4ccccc4c3C)=[N+]1[B-]2(F)F`
A: 624

Q: GET /values?readout=emission maximum&item= `CCC1=C(C)C2=C(C)c3cc(I)cn3[B-](F)(F)[N+]2=C1C`
A: 533.5

----------
# experimentalProtocol: solvent given as SMILES
# conditionParameters: in CCOC(C)=O
recordedMetric: emission maximum
Answer with the figure and its unit, nothing else.

Q: GET /values?readout=emission maximum&item= `O=C1Nc2ccccc2/C1=C/C(=O)c1ccccc1`
A: 394 nm

Q: GET /values?readout=emission maximum&item= CCCCCC(CC)C1(C(CC)CCCCC)c2ccccc2-c2ccc(C#Cc3cc(C#Cc4ccc5c(c4)C(C(CC)CCCCC)(C(CC)CCCCC)c4ccccc4-5)c4ccc5c(C#Cc6ccc7c(c6)C(C(CC)CCCCC)(C(CC)CCCCC)c6ccccc6-7)cc(C#Cc6ccc7c(c6)C(C(CC)CCCCC)(C(CC)CCCCC)c6ccccc6-7)c6ccc3c4c65)cc21 (stereo not given)
A: 509 nm

Q: GET /values?readout=emission maximum&item= `CCn1c(-c2ccc(N(c3ccccc3)c3cccc4ccccc34)cc2)c(-c2ccc3ccccc3c2)c(-c2ccc3ccccc3c2)c1-c1ccc(N(c2ccccc2)c2cccc3ccccc23)cc1`
A: 434 nm

Q: GET /values?readout=emission maximum&item= COC(=O)C(Cc1ccc2oc(-c3ccc(N(c4ccccc4)c4ccccc4)cc3)nc2c1)NC(=O)OC(C)(C)C (stereo not given)
A: 448.75 nm

More entries:
Q: GET /values?readout=emission maximum&item= `c1ccc2c(c1)CCc1c-2cnc2c1-c1ccccc1CC2`
A: 358 nm

Q: GET /values?readout=emission maximum&item= `Cc1ccc(C2=C3C=c4c(oc5ccccc45)=[N+]3[B-](F)(F)n3c2cc2c4ccccc4oc23)cc1`
A: 594.5 nm

Q: GET /values?readout=emission maximum&item= `Cc1ccc2oc(-c3cc4cc(C)ccc4oc3=O)cc2c1`
A: 436 nm

Q: GET /values?readout=emission maximum&item= `O=C1c2ccccc2C(=O)N1c1ccc(Cn2cncn2)cc1`
A: 355 nm

Q: GET /values?readout=emission maximum&item= `Cc1ccc(C2=C3C=CC=[N+]3[B-](F)(F)n3cccc32)cc1`
A: 514.5 nm

----------
# experimentalProtocol: solvent given as SMILES
# conditionParameters: in CS(C)=O
Quick reference: emission maximum of the listed items.
Give a bare numeral; the unit nm is implied.

Q: GET /values?readout=emission maximum&item= `CCCCCCCCCCCCN(CCCCCCCCCCCC)c1ccc2c(c1)oc(=O)c1c(=O)oc3ccccc3c12`
A: 562

Q: GET /values?readout=emission maximum&item= `CC(C)(C)c1cc2ccc3cc(C(C)(C)C)cc4c3c2c(c1)c(=O)n1c4nc2c3cc(C(C)(C)C)cc4ccc5cc(C(C)(C)C)cc(c5c43)c21`
A: 553

Q: GET /values?readout=emission maximum&item= `O=C1c2ccccc2C(=O)N1c1ccc(Cn2cncn2)cc1`
A: 563

Q: GET /values?readout=emission maximum&item= `CCOc1cc2c(cc1/C=C/C1=CC(=C(C#N)C#N)CC(C)(C)C1)c1ccccc1n2CC`
A: 641

Q: GET /values?readout=emission maximum&item= `CCC1=C(C)C2=Cc3ccccc3B(O)N2C1=O`
A: 416

----------
# experimentalProtocol: solvent given as SMILES
# conditionParameters: in CCO
Decision: emission maximum compared against 600 nm; not below it gives 1.0, below it gives 0.0.

The following compounds have reported results that may help.
Q: Test whether the compound `CCN(C(C)=O)c1cc2c(cc1C)C(c1ccccc1C(=O)O)=C1CCCC(/C=C/C3=[N+](C)c4ccccc4C3(C)C)=C1O2` records emission maximum of 600 nm or higher.
A: 1.0

Q: Test whether the compound `CN(C)c1ccc2c(-c3ccc(N)cc3C(=O)[O-])c3ccc(=[N+](C)C)cc-3oc2c1` records emission maximum of 600 nm or higher.
A: 0.0

Q: Test whether the compound CC/[NH+]=c1\cc2oc3cc(NCCOC(=O)C(NC(=O)OC(C)(C)C)C(C)C)c4ccccc4c3nc-2cc1C (stereo not drawn) records emission maximum of 600 nm or higher.
A: 1.0

More entries:
Q: Test whether the compound `CC/[NH+]=c1\cc2oc3cc(NCCO)c4ccccc4c3nc-2cc1C` records emission maximum of 600 nm or higher.
A: 1.0

Q: Test whether the compound `CCN(CC)c1cc2oc3cc(O)c(F)cc3c(=O)c2cc1F` records emission maximum of 600 nm or higher.
A: 0.0

Q: Test whether the compound `CC[N+](CC)=c1ccc2c(-c3ccccc3C(=O)O)c3oc4cc(N)ccc4c3oc-2c1` records emission maximum of 600 nm or higher.
A: 1.0

Q: Test whether the compound `Cc1cc(C)c(-c2nnc(-c3ccc(-n4c5ccccc5c5ccccc54)c(C)c3)o2)c(C)c1` records emission maximum of 600 nm or higher.
A: 0.0

Q: Test whether the compound `CC1(C)CC(/C=C/c2ccc(N3CCOCCOCCOCCOCC3)cc2)=CC(=C(C#N)C#N)C1` records emission maximum of 600 nm or higher.
A: 1.0

Q: Test whether the compound `CCCCn1c2ccc(/C=C(\C#N)c3ccc([N+](=O)[O-])cc3)cc2c2cc(Cn3c(-c4ccc5c(c4)c4ccccc4n5CCCC)nc4ccccc43)ccc21` records emission maximum of 600 nm or higher.
A: 0.0

----------
# experimentalProtocol: solvent given as SMILES
# conditionParameters: in ClC(Cl)Cl
Quick reference: emission maximum of the listed items.
Give a bare numeral; the unit nm is implied.

Examples with answers:
Q: GET /values?readout=emission maximum&item= `F[B-]1(F)n2ccnc2-c2cccc[n+]21`
A: 356

Q: GET /values?readout=emission maximum&item= `CCCCCCCCCCOc1cc(OCCCCCCCCCC)cc(C2=C3C(/C=C/c4ccc(N(C)C)cc4)=C(C#Cc4ccc(C(C)(C)C)cc4)C(/C=C/c4ccc(N(C)C)cc4)=[N+]3[B-](F)(F)n3c(/C=C/c4ccc(N(C)C)cc4)c(C#Cc4ccc(C(C)(C)C)cc4)c(/C=C/c4ccc(N(C)C)cc4)c32)c1`
A: 835

Q: GET /values?readout=emission maximum&item= `CCOC(CN1C(=O)C2=C(c3cc4cc(C(C)(C)C)cc(C(C)(C)C)c4o3)N(CC(OCC)OCC)C(=O)C2=C1c1cc2cc(C(C)(C)C)cc(C(C)(C)C)c2o1)OCC`
A: 594

Q: GET /values?readout=emission maximum&item= `CCOc1ccc2c(-c3nc(-c4ccccc4F)no3)cc(=O)oc2c1`
A: 453

More entries:
Q: GET /values?readout=emission maximum&item= `CCOC(CN1C(=O)C2=C(c3cccs3)N(CC(OCC)OCC)C(=O)C2=C1c1cccs1)OCC`
A: 557

Q: GET /values?readout=emission maximum&item= `Cc1cc(-c2ccccc2)nc2c1ccc1nc(-c3ccccc3)cn12`
A: 448

Q: GET /values?readout=emission maximum&item= `O=S(=O)(c1ccc(-c2ccc3c(c2)c2ccccc2n3-c2ccccc2)cc1)c1ccc(-c2ccc3c(c2)c2ccccc2n3-c2ccccc2)cc1`
A: 402.48

Q: GET /values?readout=emission maximum&item= `CCCCCCCCC1(CCCCCCCC)c2cc(-c3ccc(C(F)(F)F)cc3)ccc2-c2ccc(N(c3ccc(-n4c5ccccc5c5ccccc54)cc3)c3ccc4c(c3)C(CCCCCCCC)(CCCCCCCC)c3cc(-c5ccc(C(F)(F)F)cc5)ccc3-4)cc21`
A: 445

----------
# experimentalProtocol: solvent given as SMILES
# conditionParameters: in C1CCOC1
Quick reference: emission maximum of the listed items.

Examples with answers:
Q: GET /values?readout=emission maximum&item= `N#C/C(=C\c1cc(/C=C(\C#N)c2ccc(C(F)(F)F)cc2)c(-c2ccc(N(c3ccccc3)c3ccccc3)cc2)cc1-c1ccc(N(c2ccccc2)c2ccccc2)cc1)c1ccc(C(F)(F)F)cc1`
A: 587 nm

Q: GET /values?readout=emission maximum&item= `Cc1cc(-n2c3ccccc3c3ccccc32)ccc1-c1ccc(S(=O)(=O)c2ccccc2)cc1C`
A: 401.77 nm

Q: GET /values?readout=emission maximum&item= `CC(C)(C)c1ccc(C2=C(c3ccc(N(c4ccccc4)c4ccccc4)cc3)S(=O)(=O)c3c2sc(-c2ccc(N(c4ccccc4)c4ccccc4)cc2)c3-c2ccc(C(C)(C)C)cc2)cc1`
A: 591 nm

Q: GET /values?readout=emission maximum&item= `c1ccc2c(c1)CCc1c-2cnc2c1-c1ccccc1CC2`
A: 356 nm

Q: GET /values?readout=emission maximum&item= CCOC(=O)c1ccc(C2=CC3=c4cc(-c5ccc(C(=O)OCC)cc5)c5nc(C(F)(F)C(F)(F)C(F)(F)F)nc6c(-c7ccc(C(=O)OCC)cc7)cc(c4c65)C4=CC(c5ccc(C(=O)OCC)cc5)=C5N=C(C(F)(F)C(F)(F)C(F)(F)F)N=C2C5C43)cc1 (stereo not given)
A: 523 nm

More entries:
Q: GET /values?readout=emission maximum&item= `CC(C)(C)c1ccc(-c2c(-c3ccc(N(c4ccccc4)c4ccccc4)cc3)cc(-c3ccc(N(c4ccccc4)c4ccccc4)cc3)c(-c3ccc(C(C)(C)C)cc3)c2-c2ccc(C(C)(C)C)cc2)cc1`
A: 406 nm

Q: GET /values?readout=emission maximum&item= `CCCCCOc1ccc2c(c1)c1ccc3cccc4c5cccc6oc(=O)c2c(c65)c1c34`
A: 462 nm

Q: GET /values?readout=emission maximum&item= `Cn1nc(-c2ccccc2)c2nc3cc(Cl)ccc3nc21`
A: 519 nm

Q: GET /values?readout=emission maximum&item= `CCCCCOc1cc2oc(=O)c3c4ccc(C#N)cc4c4ccc5cccc6c(c1)c2c3c4c56`
A: 444 nm

Q: GET /values?readout=emission maximum&item= `C(#Cc1ccc(N(c2ccc(C#Cc3ccc(-c4cc(-c5ccccc5)nc(-c5ccccc5)c4)cc3)cc2)c2ccc(C#Cc3ccc(-c4cc(-c5ccccc5)nc(-c5ccccc5)c4)cc3)cc2)cc1)c1ccc(-c2cc(-c3ccccc3)nc(-c3ccccc3)c2)cc1`
A: 455 nm

Q: GET /values?readout=emission maximum&item= `O=C1c2cc(-n3c4ccccc4c4ccccc43)ccc2S(=O)(=O)c2ccc(-n3c4ccccc4c4ccccc43)cc21`
A: 592 nm

Q: GET /values?readout=emission maximum&item= `O=C1c2cccc3c(-n4c5ccccc5c5ccccc54)ccc(c23)C(=O)N1C1CCCCC1`
A: 546 nm

Q: GET /values?readout=emission maximum&item= `CC[NH+](CC)c1ccc(-c2nc3c4ccccc4n(C)c3nc2-c2ccc(B(c3c(C)cc(C)cc3C)c3c(C)cc(C)cc3C)cc2)cc1`
A: 451.19 nm

Q: GET /values?readout=emission maximum&item= `CCN1c2ccc(-c3cc(C(F)(F)F)[nH]n3)cc2Sc2cc(-c3cc(C(F)(F)F)[nH]n3)ccc21`
A: 469 nm

Q: GET /values?readout=emission maximum&item= `COc1ccc(-c2nc3ccccc3nc2-c2ccc(OC)cc2)cc1`
A: 432 nm
